meta.source: the supplement of paper PMC6089552

Tested on: A673/TR/shEF
Assay: cell viability (LOESS-normalised, relative to median of negative controls) (log2 ratio); higher = more viable cells (less compound effect), active = hit call of the paper (over 3 MAD below the median)
Settings: 0.25 µM; library screen: screen2; EWS-FLI1 expression: low (doxycycline-induced shRNA knockdown); treatment time: 72 h
Among all 3,200 compounds or so, about 300 (9.4%) showed activity. The sample as a whole holds a higher share of actives than the screen did.
READOUT_TYPE: cell viability (log2)
Lab note: write the figure by itself, no unit.

Incoming: May I ask what cell viability (log2) has been recorded for Nc1ncnc2c1ncn2[C@@H]1O[C@H](COP(=O)(O)CP(=O)(O)OP(=O)([O-])[O-])[C@H](O)C1O.[Li+].[Li+] (some centres not stated) ?
Outgoing: 0.0925

Incoming: Field entry: CN1CC[C@]2(CCN3CCc4c(oc5ccccc45)[C@@H]3C2)N(C)C1=O
Outgoing: 0.0926

Incoming: Follow-up item: CN1CC[C@@]23CCCC[C@@H]2[C@@H]1Cc1ccc(O)cc13
Outgoing: 0.105

Incoming: What do you have for Nc1ncnc2c1ncn2C1OC2COP(O)(=S)OC2C1O (configuration not stated) ?
Outgoing: 0.132

Incoming: Check COc1ccc2c3c1O[C@H]1C(=O)CC[C@@]4(O)C(C2)N(CC2CC2)CCC314 (some centres not stated) too.
Outgoing: 0.0949

Incoming: Do the same for CC(=O)O[C@H]1C[C@@H]2CC[C@@H]3[C@H](CC[C@@]4(C)[C@H]3C[C@H]([N+]3(C)CCCCC3)[C@@H]4OC(C)=O)[C@@]2(C)C[C@@H]1[N+]1(C)CCCCC1 please
Outgoing: 0.105

Incoming: # iterate: COc1ccc2c(c[n+](C)c3c4cc5c(cc4ccc23)OCO5)c1OC
Outgoing: 0.121

Incoming: Next molecule: C[N+]1(C)C2CC(OC(=O)[C@H](CO)c3ccccc3)CC1C1OC12 (some centres not stated)
Outgoing: 0.126

Incoming: Same question for CCOC(=O)NC1=C(N2CC2)C(=O)C(NC(=O)OCC)=C(N2CC2)C1=O please.
Outgoing: -0.00616

Incoming: Same question, C=CCN1C[C@@H](C)N([C@H](c2ccc(C(=O)N(CC)CC)cc2)c2cccc(OC)c2)C[C@@H]1C this time
Outgoing: 0.0464

Incoming: Another: O=C(O)c1cc[c]([Hg][Cl])cc1
Outgoing: 0.0774

Incoming: Could you do the same for C=C(C)[C@@H]1C2OC(=O)C1[C@]1(O)CC3O[C@]34C(=O)O[C@H]2[C@]14C.CC(C)(O)[C@@H]1C2OC(=O)C1[C@]1(O)C[C@H]3O[C@]34C(=O)O[C@H]2[C@]14C (some centres not stated) , please?
Outgoing: 0.0228

Incoming: Same lookup for CCCN(CCC)[C@@H]1CCc2c(F)ccc(O)c2C1 , please.
Outgoing: 0.0763

Incoming: Record: NC(=O)c1cc([N+](=O)[O-])cc([N+](=O)[O-])c1
Outgoing: 0.0542

Incoming: Would you kindly repeat that for COc1ccc2c(c1O)-c1c3c(cc4c1[C@H](C2)N(C)CC4)OCO3 ?
Outgoing: 0.0658

Incoming: Can you check CCCC(C)(COC(N)=O)COC(=O)NC(C)C (configuration not stated) next?
Outgoing: 0.0672

Incoming: Would you mind doing NCC#Cc1ccccc1 as well?
Outgoing: -0.0046

Incoming: Input NC(=O)CN1CC(O)CC1=O (configuration not stated)
Outgoing: 0.0927

Incoming: Would you mind doing N[C@@H](Cn1ccc(=O)[nH]c1=O)C(=O)O as well?
Outgoing: -0.00427

Incoming: Then what about the molecule C[C@@H]1OC(=O)[C@H]2C[C@H]3CCCC[C@@H]3[C@@H](/C=C/[C@@H]3CCC[C@@H](C)N3C)[C@@H]12 ?
Outgoing: 0.0731

Incoming: // repeat for COc1cc([C@@H]2c3cc4c(cc3[C@H](O)[C@H]3COC(=O)[C@H]23)OCO4)cc(OC)c1OC and report
Outgoing: 0.0379

Incoming: Repeat with C=C(C)[C@H]1Cc2c(ccc3c2O[C@@H]2COc4cc(OC)c(OC)cc4[C@@H]2C3=O)O1
Outgoing: -0.539
